System: EKVX NSCLC
Test: NCI-60 one-dose screen, 48 h (100 = growth as untreated, 0 = no growth, -100 = all killed)
Settings: 10 µM unless noted
About 83,000 compounds went through this panel and 20% of them were active in at least one assay; those are over-represented in the sample as a whole. Active and inactive are the calls of the source. Rule for the calls: active = growth percent below 10; inactive = the rest.
Catalogue of growth values

A selection of reference data follows.
# molecule, result
rows = [
    ("O=C1[C@H]2Cc3c([nH]c4ccccc34)[C@H](c3ccc(Cl)cc3)N2C(=O)CN1C1CCN(Cc2c(Cl)cccc2Cl)CC1", "74.5% (inactive)"),
    ("CCNC(=O)Oc1ccc(/C(=C(/C)c2ccc(Cl)cc2)c2ccc(OCCN(C)C)cc2)cc1", "72.1% (inactive)"),
    ("C(=C(\\C1=NCCN1)n1cnc2ccccc21)/c1ccc2ccccc2c1", "73.2% (inactive)"),
    ("O=C(COc1cccc2cccnc12)Nc1ccc(C(=O)/C=C/c2ccc(Cl)cc2)cc1", "80.9% (inactive)"),
    ("CCOC(=O)C1=C(C)N=C2Sc3ccccc3N2C1c1ccccc1 (configuration not stated)", "67.6% (inactive)"),
]

Value of growth reported for the molecule CS(=O)c1nccc(-c2c(-c3ccc(F)c(OCCc4ccc(F)cc4)c3)nc3sccn23)n1 (configuration not stated) is 36.1% (inactive)

Value of growth reported for the molecule N/C(=N\OC(=O)CSc1nc2ccccc2s1)c1ccc2ccccc2c1 is 91.8% (inactive)

Value of growth reported for the molecule O=C1Nc2ccc(Cl)cc2/C1=C/c1ccc(OCc2ccc(Br)cc2F)cc1 is 97.5% (inactive)

Value of growth reported for the molecule CC(=O)Oc1ccc(CCN2C(=O)CSC2=S)cc1 is 97.3% (inactive)

Value of growth reported for the molecule CN1CCN(c2ccc(NC(=O)Nc3ccc4c(ccn4-c4cccc(C(N)=O)n4)c3)cc2C(F)(F)F)CC1 is 78.4% (inactive)

* * *

Tested on: NCI/ADR-RES ovarian
Test: NCI-60 one-dose screen, 48 h (100 = growth as untreated, 0 = no growth, -100 = all killed)
Conditions: 10 µM unless noted
Compounds without any hit were thinned out: in the full panel of roughly 83,000, 20% have a hit. Active and inactive are the calls of the source. How the source made its calls: active means growth percent below 10; inactive means the rest.
Catalogue of growth values

A selection of reference data follows.
# compound.smiles, growth
rows = [
    ("C#C[C@]1(O)CC[C@H]2[C@@H]3CC=C4c5sc(Nc6cccc(Cl)n6)nc5CC[C@]4(C)[C@H]3CC[C@@]21C", "23% (inactive)"),
    ("COc1ccc(/C=C/C(=O)c2nnn(-c3ccc(Br)cc3)c2C)cc1OC", "59.3% (inactive)"),
    ("CNC(=O)c1cc(Oc2ccc3nc(NC(=O)c4ccc(CN5CCCN(C)CC5)c(C(F)(F)F)c4)sc3c2)ccn1", "60.6% (inactive)"),
]

Value of growth reported for the molecule Cn1c2ccc(Br)cc2c2c3c(c4c5cc(F)ccc5oc4c21)C(=O)N(O)C3=O is 75.5% (inactive)

* * *

System: RPMI-8226 leukemia
Experiment: NCI-60 one-dose screen, 48 h
Conditions: 10 µM unless noted
Compounds without any hit were thinned out: in the full panel of roughly 83,000, 20% have a hit. Activity calls are given as the source filed them. The calls were made as follows: active = growth percent below 10; inactive = the rest.
Select the matching outcome among yes for active, no for inactive

# compound.smiles, assigned.category
records = [
    ("CS(=O)(=O)c1nccc(-c2c(-c3ccc(F)c(OCc4ccccc4)c3)nc3sccn23)n1", "no"),
]

Now look at this entry.
Enquiry: Test call for this molecule, please: COc1ccc(-c2nc(SCC(C)C)nc(N/N=C\c3cccc([N+](=O)[O-])c3)c2C#N)cc1
Return: no
